The reported measurements were obtained from PubChem BioAssay (NCATS).

- assay overview: BET inhibitor-based combinations targeting novel dependencies in MECOM-rearranged (r) AML: MV-4-11 cell line (AID 2202233); note: nearly all actives have a fitted effect of over 45% in size
- study conditions: MV-4-11 AML viability, CellTiter-Glo luminescence, 48 h; series mostly up to 46 µM
Records with an inconclusive call do not appear. The source made the active and inactive calls. Calls come from the whole dose curve; as a rule, active = well fitted inhibition curve with a large enough effect; inconclusive = small, poorly fitted or top-dose-only effect; inactive = no such curve, though single readings can be large or run the other way.
Outcome codes: t (active), f (inactive)

compound=Cc1cc2cc(Oc3ccnc(Nc4cccc(CS(=O)(=O)NCCN(C)C)c4)n3)ccc2[nH]1 class_assignment=t
compound=O=C(c1ccc(Nc2nc(C3CC3)cn3c(-c4cn[nH]c4)cnc23)c(F)c1)N1CCOCC1 class_assignment=t
compound="CC(C)C(N)C(=O)OCC(CO)OCn1cnc2c(=O)[nH]c(N)nc21 (stereo unspecified)" class_assignment=f
compound="C/C=C(/C)C(=O)O[C@H]1C(C)=CC23C(=O)C(C=C(CO)[C@@H](O)[C@]12O)[C@H]1[C@@H](C[C@H]3C)C1(C)C (stereo partly specified)" class_assignment=t
compound=C=C1C(=O)O[C@@H]2[C@H]3C(C)=CC[C@@]34O[C@@]4(C)CC[C@@H]12 class_assignment=t
compound=O=S(=O)(NCCNC/C=C/c1ccc(Br)cc1)c1cccc2cnccc12 class_assignment=t
compound=N[C@@H]1CN(c2c(F)cc3c(=O)c(C(=O)O)cn([C@@H]4C[C@@H]4F)c3c2Cl)CC12CC2 class_assignment=f
compound=Cc1noc(C)c1-c1ccc(-c2cc(C(N)=O)c(NC(N)=O)s2)c(O[C@H]2CCNC2)c1 class_assignment=f
compound=NC[C@H]1O[C@H](O[C@H]2[C@H](O)[C@@H](O[C@H]3O[C@H](CO)[C@@H](O)[C@H](N)[C@H]3O)[C@H](N)C[C@@H]2N)[C@H](N)C[C@@H]1O class_assignment=f
compound=C=C1C(=CC=C2CCC[C@]3(C)[C@@H]([C@H](C)C=C[C@H](C)C(C)C)CC[C@@H]23)C[C@@H](O)C[C@@H]1O class_assignment=t
compound=CCOCOC[C@H](C[C@H](C)C(=O)NO)NC(=O)c1ccc(Oc2ccccc2)cc1 class_assignment=f
compound=Cc1cc(I)ccc1Nc1c(C(=O)NOCC2CC2)cc(F)c(F)c1F class_assignment=t
compound=COC1(c2sc3c(N4CCOCC4)nc(-c4cnc(N)nc4)nc3c2C)COC1 class_assignment=t
compound=Cc1ccc(Nc2nnc(Cc3ccncc3)c3ccccc23)cc1Br class_assignment=t
compound=C[C@H]1[C@H](C)CC[C@]2(C(=O)O)CC[C@]3(C)C(=CC[C@@H]4[C@@]5(C)CC[C@H](O)C(C)(C)[C@@H]5CC[C@]43C)[C@H]12 class_assignment=f
compound=CC(C)(O)[C@H]1CC[C@@](C)([C@H]2[C@@H](O)C[C@@]3(C)[C@@H]4C[C@H](O[C@@H]5O[C@H](CO)[C@@H](O)[C@H](O)[C@H]5O)[C@H]5C(C)(C)[C@@H](O[C@@H]6OC[C@@H](O)[C@H](O)[C@H]6O)CC[C@@]56C[C@@]46CC[C@]23C)O1 class_assignment=f

====

- assay overview: BET inhibitor-based combinations targeting novel dependencies in MECOM-rearranged (r) AML: HNT-34 cell line (AID 2202234); note: nearly all actives have a fitted effect of over 35% in size; note: potency is the fitted concentration of half-maximal effect
- study conditions: HNT-34 AML viability, CellTiter-Glo luminescence, 48 h; series mostly up to 46 µM
Records with an inconclusive call do not appear. Active and inactive are the calls of the source. The call rests on the fitted dose curve; in most records, active means well fitted inhibition curve with a large enough effect; inconclusive means small, poorly fitted or top-dose-only effect; inactive means no such curve, though single readings can be large or run the other way.
property label: Potency

compound=CN(C)C/C=C/C(=O)Nc1ccc(C(=O)N2CCC[C@@H](Nc3ncc(Cl)c(-c4c[nH]c5ccccc45)n3)C2)cc1 value_observed="235 nM (active)"
compound=[2H]c1nc(C)nc([2H])c1-c1cc(NC[C@@H](C)c2cccc3c(C(=O)NC)ccnc23)ncn1 value_observed=inactive
compound=O=C(Nc1cccc(Nc2ncc(Br)c(NCCc3cnc[nH]3)n2)c1)N1CCCC1 value_observed="1660 nM (active)"
compound=C/C=C1\NC(=O)[C@H]2CSSCC/C=C\[C@H](CC(=O)N[C@H](C(C)C)C(=O)N2)OC(=O)[C@H](C(C)C)NC1=O value_observed="8.3 nM (active)"
compound=CN1N=C(N)c2cn([C@@H]3O[C@H](COP(=O)(O)O)[C@@H](O)[C@@H]3O)c3ncnc1c23 value_observed="468 nM (active)"
compound=CC[C@@]1(O)C[C@H](O[C@H]2C[C@H](N(C)C)[C@H](O[C@H]3C[C@H](O)[C@H](O[C@H]4CCC(=O)[C@H](C)O4)[C@H](C)O3)[C@H](C)O2)c2c(cc3c(c2O)C(=O)c2c(O)cccc2C3=O)[C@@H]1C(=O)OC value_observed="3320 nM (active)"
compound=COc1cc2c3c(n(CCCN4CCOCC4)c(=O)c2cc1OC)-c1cc2c(cc1C3=O)OCO2 value_observed="93.4 nM (active)"
compound="Clc1cccc(C(c2ccc3nc[nH]c3c2)n2ccnc2)c1 (centres undefined)" value_observed=inactive
compound="CC(C)C(N)C(=O)OCC(CO)OCn1cnc2c(=O)[nH]c(N)nc21 (centres undefined)" value_observed=inactive

====

- assay overview: BET inhibitor-based combinations targeting novel dependencies in MECOM-rearranged (r) AML: UCSD-AML1 cell line (AID 2202235); note: nearly all actives have a fitted effect of over 40% in size; note: potency is the fitted concentration of half-maximal effect
- study conditions: UCSD-AML1 AML cells viability, CellTiter-Glo, 48 h; series mostly up to 46 µM
Inconclusive results are not listed. Active and inactive are the calls of the source. The call rests on the fitted dose curve; in most records, active means well fitted inhibition curve with a large enough effect; inconclusive means small, poorly fitted or top-dose-only effect; inactive means no such curve, though single readings can be large or run the other way.
property label: Potency

compound=CCn1cc(-c2ccnc3[nH]c(-c4cccc(CN(C)C)c4)cc23)c(-c2ccc(NC(=O)N(C)C)cc2)n1 value_observed="4.17 µM (active)"
compound=C=CC(=O)N1CCC[C@H](n2c(=O)n(-c3ccc(Oc4ccccc4)cc3)c3c(N)ncnc32)C1 value_observed=inactive
compound=C[C@@H]1Cc2c([nH]c3ccccc23)[C@@H](c2c(F)cc(/C=C/C(=O)O)cc2F)N1CC(C)(C)F value_observed=inactive
compound=CCOC(=O)CCNc1cc(N2CCc3ccccc3CC2)nc(-c2ccccn2)n1 value_observed="3.32 µM (active)"
compound=C/C(=C\c1csc(C)n1)[C@@H]1C[C@@H]2O[C@]2(C)CCC[C@H](C)[C@H](O)[C@@H](C)C(=O)C(C)(C)[C@@H](O)CC(=O)N1 value_observed="0.0166 µM (active)"
compound=COc1cc2c3c(n(CCCn4ccnc4)c(=O)c2cc1OC)-c1cc2c(cc1C3=O)OCO2 value_observed="0.0209 µM (active)"
compound="C[C@@H]1CC[C@@]2(OC1)OC1CC3C4CC=C5CC(O)CCC5(C)C4CCC3(C)C1[C@@H]2C (stereo partly drawn)" value_observed=inactive
compound=CCC(=O)N1CCOc2c(cc(-c3cc(OC)cc(OC)c3)cc2C(=O)N[C@H]2CCCN(C)C2)C1 value_observed="20.9 µM (active)"

====

- tested target: Retinaldehyde dehydrogenase 3 (Homo sapiens) (UniProt P47895)
- assay overview: qHTS for Inhibitors of the Aldehyde Dehydrogenase Family (ALDH1A3) Confirmatory screens (AID 2061311); note: nearly all actives have a fitted effect of over 60% in size
- study conditions: ALDH inhibition qHTS; series mostly up to 46 µM
Inconclusive results are not listed. Activity calls are given as the source filed them. Calls come from the whole dose curve; as a rule, active = well fitted inhibition curve with a large enough effect; inconclusive = small, poorly fitted or top-dose-only effect; inactive = no such curve, though single readings can be large or run the other way.
Possible outcomes: active, inactive

compound=Cc1ccsc1CN(C)c1ncnc2ccc(-c3oc(-c4ccccc4)nc3C)cc12 class_assignment=active
compound="O=C(CCC1CCCN(S(=O)(=O)c2ccccc2F)C1)NCCCN1CCOCC1 (stereo unspecified)" class_assignment=inactive
compound="COc1cc(O)ccc1OCCNCC(O)COc1cccc2[nH]c3ccccc3c12 (stereo unspecified)" class_assignment=active
compound=CC(C)CCN(C)Cc1ccc(-c2ccccc2)cc1 class_assignment=active
compound=CC(=O)Nc1sc2c(c1-c1nc3ccccc3s1)CN(C(C)C)C2 class_assignment=inactive
compound=Cc1ccsc1CN(C)c1ncnc2ccc(-c3ccoc3)cc12 class_assignment=active

====

- tested target: Retinaldehyde dehydrogenase 3 (Homo sapiens)
- assay overview: qHTS for Inhibitors of the Aldehyde Dehydrogenase Family (ALDH1A3) Confirmatory screens (AID 2061311); note: nearly all actives have a fitted effect of over 60% in size
- study conditions: ALDH inhibition qHTS; series mostly up to 46 µM
Inconclusive results are not listed. Active and inactive are the calls of the source. Calls come from the whole dose curve; as a rule, active = well fitted inhibition curve with a large enough effect; inconclusive = small, poorly fitted or top-dose-only effect; inactive = no such curve, though single readings can be large or run the other way.
Labels: active, inactive

compound=CN(Cc1ccc(-c2ccc(C#N)cc2)o1)c1ccc(N2CCN(C(=O)OC(C)(C)C)CC2)cc1 tested_target="Retinaldehyde dehydrogenase 3 (Homo sapiens)" class_assignment=active
compound="COc1cccc(C2c3c(ncn(-c4ccccc4)c3=N)Oc3ccc4ccccc4c32)c1 (stereo not given)" tested_target="Retinaldehyde dehydrogenase 3 (Homo sapiens)" class_assignment=active
compound=Cc1cc(C)nc(NC(=S)N2CCN(c3cccc4[nH]ccc34)CC2)c1 tested_target="Retinaldehyde dehydrogenase 3 (Homo sapiens)" class_assignment=active
compound=CC(C)(C)c1ccc(S(=O)(=O)c2cnc(SCC(=O)Nc3ccc(F)c(Cl)c3)[nH]c2=O)cc1 tested_target="Retinaldehyde dehydrogenase 3 (Homo sapiens)" class_assignment=inactive
compound=Cn1ncc2c(C(=O)NCC(F)(F)F)cc(-c3ccccc3F)nc21 tested_target="Retinaldehyde dehydrogenase 3 (Homo sapiens)" class_assignment=inactive
compound=NC(=O)C1CCN(c2nccc(-c3ccc4c(c3)OCCCO4)n2)CC1 tested_target="Retinaldehyde dehydrogenase 3 (Homo sapiens)" class_assignment=active
compound="CCC(=O)NC(c1cc(Cl)c2ccccc2c1O)C(C)C (stereo not given)" tested_target="Retinaldehyde dehydrogenase 3 (Homo sapiens)" class_assignment=active
compound=Cc1cc2nc3n(c(=O)c2n1CC(=O)Nc1ccc(Br)cc1F)CCC3 tested_target="Retinaldehyde dehydrogenase 3 (Homo sapiens)" class_assignment=inactive
compound=CC(=O)c1c(C)n(-c2ccc(C)cc2)c2ccc(OC(=O)COc3ccccc3)cc12 tested_target="Retinaldehyde dehydrogenase 3 (Homo sapiens)" class_assignment=inactive
compound="COc1cc(O)c(C(CC(=O)N2CCN(c3ccc(F)cc3)CC2)c2ccc3c(c2)OCO3)c(OC)c1 (stereo not given)" tested_target="Retinaldehyde dehydrogenase 3 (Homo sapiens)" class_assignment=active
